# method summary: MTS cell viability assay, HEK-293T (293T) normal cells
# Type: cell-based
# condition set: human
# Experimental: Primary viability screening: (1) the synthesized compounds 3a to 13d were respectively dissolved in DMSO to prepare a 40 μg/mL cannabicyclol and cannabicyclol derivative solutions. (2) A control group: a 200 μL DMSO solvent. […] (10) The absorbance value at 490 nm was measured on an enzyme labeling apparatus, and the IC50 value was calculated.
viability at 72 h vs 50%: less than gives t; not less than gives f.

Some solved cases for reference:
Cc1ccc(-c2cc(O)c3c(c2)OC2(C)CCC4C2C3C4(C)C)cc1 (centres unmarked) [Compound 3l] : f
CC12CCC3C1C(c1c(O)cc(-c4ccc(Cl)cc4)cc1O2)C3(C)C (centres unmarked) [Compound 3s] : f
Cc1cccc(-c2cc(O)c3c(c2)OC2(C)CCC4C2C3C4(C)C)c1 (centres unmarked) [Compound 3m] : f
CC12CCC3C1C(c1c(O)cc(-c4ccccc4)cc1O2)C3(C)C (centres unmarked) [Compound 3k] : t
CCCCCc1cc(OC(=O)CCCCOc2cc(=O)oc3ccccc23)c2c(c1)OC1(C)CCC3C1C2C3(C)C (centres unmarked) [Compound 9t] : f
CCCCCc1cc(OC(=O)CCCC[P+](c2ccccc2)(c2ccccc2)c2ccccc2)c2c(c1)OC1(C)CCC3C1C2C3(C)C (centres unmarked) [Compound 9s] : t
CC12CCC3C1C(c1c(O)cc(-c4ccc(F)cc4)cc1O2)C3(C)C (centres unmarked) [Compound 3r] : t
CCCCCc1cc2c(c(-c3ccccc3)c1)C1C3C(CCC3(C)O2)C1(C)C (centres unmarked) [Compound 13b] : f

Decide: viability at 72 h of Cc1cc(O)c2c(c1)OC1(C)CCC3C1C2C3(C)C (centres unmarked) [Compound 3c] strictly below 50%?
f

Decide: viability at 72 h of Cc1cc(C)cc(-c2cc(O)c3c(c2)OC2(C)CCC4C2C3C4(C)C)c1 (centres unmarked) [Compound 3o] strictly below 50%?
f

Decide: viability at 72 h of CC(C)(C)c1ccc(-c2cc(O)c3c(c2)OC2(C)CCC4C2C3C4(C)C)cc1 (centres unmarked) [Compound 3p] strictly below 50%?
f

Decide: viability at 72 h of CC12CCC3C1C(c1c(O)cc(-c4ccsc4)cc1O2)C3(C)C (centres unmarked) [Compound 3t] strictly below 50%?
f

Decide: viability at 72 h of COc1ccc(-c2cc(O)c3c(c2)OC2(C)CCC4C2C3C4(C)C)cc1 (centres unmarked) [Compound 3q] strictly below 50%?
t

---

# Test system: HEK-293T
# method summary: MTS cell viability assay, HEK-293T (293T) normal cells
# Type: cell-based
# condition set: Homo sapiens, HEK-293T; Table 8, normal cells, preferred compounds; read-out: IC50 293T
experimental readout: IC50

Known IC50 results, listed for orientation:
CCCCCc1cc(OC(=O)CN2CCOCC2)c2c(c1)OC1(C)CCC3C1C2C3(C)C (stereo not drawn) [Compound 9k] : > 40 µg/mL
CCCCCc1cc2c(c(-c3ccccc3)c1)C1C3C(CCC3(C)O2)C1(C)C (stereo not drawn) [Compound 13b] : > 40 µg/mL

Return IC50 (reported value) for this compound: CCCCCc1cc(OC(=O)CCN(C)C)c2c(c1)OC1(C)CCC3C1C2C3(C)C (stereo not drawn) [Compound 9n]
35.2 µg/mL

---

# method summary: MTS cell viability assay, HEK-293T (293T) normal cells
# Type: cell-based
# condition set: human, HEK-293T (293T) normal cells; primary viability screening, 72 hours, MTS; test concentration not stated; read-out: Cell viability in 293T (%)
experimental readout: viability at 72 h

Known viability at 72 h results, listed for orientation:
CCCCCc1cc(OCC(=O)NCCc2cc3ccccc3[nH]2)c2c(c1)OC1(C)CCC3C1C2C3(C)C (stereo not shown) : 87%
CCCCCc1cc(OC(=O)/C=C/c2ccc(OC)cc2)c2c(c1)OC1(C)CCC3C1C2C3(C)C (stereo not shown) : ≥ 100%
CCCCCCCCc1cc(O)c2c(c1)OC1(C)CCC3C1C2C3(C)C (stereo not shown) : 16%

Return viability at 72 h (reported value) for this compound: C=CCOc1cc(CCCCC)cc2c1C1C3C(CCC3(C)O2)C1(C)C (stereo not shown)
77%

---

# Test system: GSC-3 (3#-GSC)
# method summary: MTS cell viability assay, glioblastoma stem cells GSC-3 (3#-GSC)
# Format: cell-based
# condition set: 72 h
experimental readout: Cell viability in 3#-GSC (%)
Please respond with the number in % and leave the unit unwritten.

Known Cell viability in 3#-GSC (%) results, listed for orientation:
CC12CCC3C1C(c1c(O)cc(-c4ccccc4)cc1O2)C3(C)C (stereo not shown) : 52
CC12CCC3C1C(c1c(O)cc(-c4ccsc4)cc1O2)C3(C)C (stereo not shown) : 50

Give GSC-3 (3#-GSC) Cell viability in 3#-GSC (%) for the following compound: CC12CCC3C1C(c1c(O)cc(-c4ccc(Cl)cc4)cc1O2)C3(C)C (stereo not shown)
49

---

# Tested on: U251
# method summary: MTS cell viability assay, U251
# Type: cell-based
# condition set: human, 72 h
experimental readout: Cell viability in U251 (%)

Return Cell viability in U251 (%) (reported value) for this compound: CC12CCC3C1C(c1c(O)cc(-c4ccc(Cl)cc4)cc1O2)C3(C)C (stereo not drawn)
91%

Return Cell viability in U251 (%) (reported value) for this compound: Cc1ccccc1-c1cc(O)c2c(c1)OC1(C)CCC3C1C2C3(C)C (stereo not drawn)
17%

Return Cell viability in U251 (%) (reported value) for this compound: Cc1cccc(-c2cc(O)c3c(c2)OC2(C)CCC4C2C3C4(C)C)c1 (stereo not drawn)
90%

Return Cell viability in U251 (%) (reported value) for this compound: CCCCCc1cc(OC(=O)CCCC[P+](c2ccccc2)(c2ccccc2)c2ccccc2)c2c(c1)OC1(C)CCC3C1C2C3(C)C (stereo not drawn)
17%

Return Cell viability in U251 (%) (reported value) for this compound: Cc1ccc(-c2cc(O)c3c(c2)OC2(C)CCC4C2C3C4(C)C)cc1 (stereo not drawn)
45%

---

# Tested on: GSC-3 (3#-GSC)
# method summary: MTS cell viability assay, glioblastoma stem cells GSC-3 (3#-GSC)
# Format: cell-based
# condition set: 72 h
Measured Cell viability in 3#-GSC (%) accompanies every entry in the list below.
Please respond with the number in % and leave the unit unwritten.

Known Cell viability in 3#-GSC (%) results, listed for orientation:
CCCCCc1cc(OC(=O)CCCC[P+](c2ccccc2)(c2ccccc2)c2ccccc2)c2c(c1)OC1(C)CCC3C1C2C3(C)C (centres unmarked) : 40
CC12CCC3C1C(c1c(O)cc(-c4ccc(F)cc4)cc1O2)C3(C)C (centres unmarked) : 43

Give GSC-3 (3#-GSC) Cell viability in 3#-GSC (%) for the following molecule: Cc1ccc(-c2cc(O)c3c(c2)OC2(C)CCC4C2C3C4(C)C)cc1 (centres unmarked)
51

Give GSC-3 (3#-GSC) Cell viability in 3#-GSC (%) for the following molecule: COc1ccc(-c2cc(O)c3c(c2)OC2(C)CCC4C2C3C4(C)C)cc1 (centres unmarked)
39

Give GSC-3 (3#-GSC) Cell viability in 3#-GSC (%) for the following molecule: CC(C)(C)c1ccc(-c2cc(O)c3c(c2)OC2(C)CCC4C2C3C4(C)C)cc1 (centres unmarked)
67

---

# Tested on: U251
# method summary: MTS cell viability assay, U251
# Type: cell-based
# condition set: human, 72 h
# Procedure: Primary viability screening: (1) the synthesized compounds 3a to 13d were respectively dissolved in DMSO to prepare a 40 μg/mL cannabicyclol and cannabicyclol derivative solutions. (2) A control group: a 200 μL DMSO solvent. […] (10) The absorbance value at 490 nm was measured on an enzyme labeling apparatus, and the IC50 value was calculated.
experimental readout: Cell viability in U251 (%)
Please respond with the number in % and leave the unit unwritten.

Known Cell viability in U251 (%) results, listed for orientation:
CC12CCC3C1C(c1c(O)cc(-c4ccccc4)cc1O2)C3(C)C (centres unmarked) : 15
CC(C)(C)c1ccc(-c2cc(O)c3c(c2)OC2(C)CCC4C2C3C4(C)C)cc1 (centres unmarked) : 97
COc1ccc(-c2cc(O)c3c(c2)OC2(C)CCC4C2C3C4(C)C)cc1 (centres unmarked) : 19

Read the next record carefully.
Return Cell viability in U251 (%) (reported value) for this compound: Cc1cc(C)cc(-c2cc(O)c3c(c2)OC2(C)CCC4C2C3C4(C)C)c1 (centres unmarked)
88

---

Measured Cell viability in 3#-GSC (%) accompanies every entry in the list below.
# System: GSC-3 (3#-GSC)
# method summary: MTS cell viability assay, glioblastoma stem cells GSC-3 (3#-GSC)
# Format: cell-based
# condition set: primary viability screening, 72 hours, MTS; test concentration not stated

Known Cell viability in 3#-GSC (%) results, listed for orientation:
CCCCCc1cc(OC(=O)/C=C/c2ccc(OC)cc2)c2c(c1)OC1(C)CCC3C1C2C3(C)C (centres unmarked) [Compound 9h] : 90%
CCCCCc1cc(OC(=O)/C=C/c2ccccc2)c2c(c1)OC1(C)CCC3C1C2C3(C)C (centres unmarked) [Compound 9g] : ≥100%
CCCCCc1cc(OC(=O)c2ccco2)c2c(c1)OC1(C)CCC3C1C2C3(C)C (centres unmarked) [Compound 9j] : ≥100%
CC12CCC3C1C(c1c(O)cccc1O2)C3(C)C (centres unmarked) [Compound 3b] : 32%

Read the next record carefully.
Return Cell viability in 3#-GSC (%) (reported value) for this compound: CCCCCc1cc(OCCC)c2c(c1)OC1(C)CCC3C1C2C3(C)C (centres unmarked) [Compound 7d]
≥100%
